study.system: rat mGluR5 receptor (Rattus norvegicus, UniProt P31424)
Construct: expressed in transfected cells; host or cells: HEK-293
Sequence (P31424 21-1203): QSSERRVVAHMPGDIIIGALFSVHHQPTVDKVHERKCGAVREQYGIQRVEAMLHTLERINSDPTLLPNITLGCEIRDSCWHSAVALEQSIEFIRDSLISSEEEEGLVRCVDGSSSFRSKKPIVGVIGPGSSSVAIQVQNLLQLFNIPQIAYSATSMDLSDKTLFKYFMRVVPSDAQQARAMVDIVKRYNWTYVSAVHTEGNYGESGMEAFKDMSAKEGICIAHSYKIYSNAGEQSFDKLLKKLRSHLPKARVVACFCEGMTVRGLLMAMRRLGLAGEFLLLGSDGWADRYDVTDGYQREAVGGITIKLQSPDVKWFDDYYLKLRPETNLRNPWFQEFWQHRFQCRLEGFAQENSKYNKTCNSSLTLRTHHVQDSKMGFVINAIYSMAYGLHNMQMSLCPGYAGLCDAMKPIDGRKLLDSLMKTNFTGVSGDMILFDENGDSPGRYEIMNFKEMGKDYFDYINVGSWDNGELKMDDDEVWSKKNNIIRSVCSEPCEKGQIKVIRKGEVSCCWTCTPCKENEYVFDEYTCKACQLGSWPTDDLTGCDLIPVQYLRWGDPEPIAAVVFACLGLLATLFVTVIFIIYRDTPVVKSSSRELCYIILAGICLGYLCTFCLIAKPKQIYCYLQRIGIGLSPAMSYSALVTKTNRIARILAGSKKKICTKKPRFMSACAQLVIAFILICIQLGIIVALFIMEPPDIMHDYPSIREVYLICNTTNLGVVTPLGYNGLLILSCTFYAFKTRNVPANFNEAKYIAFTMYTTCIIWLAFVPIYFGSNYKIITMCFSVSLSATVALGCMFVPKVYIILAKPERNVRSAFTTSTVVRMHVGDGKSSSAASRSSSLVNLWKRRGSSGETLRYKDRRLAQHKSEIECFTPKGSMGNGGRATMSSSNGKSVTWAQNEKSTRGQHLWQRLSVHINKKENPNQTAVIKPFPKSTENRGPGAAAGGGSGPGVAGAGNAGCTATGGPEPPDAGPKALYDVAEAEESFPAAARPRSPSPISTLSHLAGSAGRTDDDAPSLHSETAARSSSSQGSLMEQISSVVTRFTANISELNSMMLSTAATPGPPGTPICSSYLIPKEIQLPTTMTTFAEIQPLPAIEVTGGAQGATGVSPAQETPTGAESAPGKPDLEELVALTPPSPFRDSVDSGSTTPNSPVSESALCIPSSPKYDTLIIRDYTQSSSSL
experiment: [3H]-MPEP displacement binding assay, HEK-293 cell membranes expressing rat mGluR5
condition.parameters: read-out: Median Ki
property.label: pKi
Numbers only, as −log10 of the molar value.

Examples with answers:
structure_string=COc1ccc(C(=O)N2CCN(c3ccccn3)CC2)cc1C#Cc1cccnc1 result_value=6.05
structure_string=COc1ccc(C(=O)N2CCN(c3cnccn3)CC2)cc1C#Cc1cccc(Cl)c1 result_value=8.68
structure_string=COc1ccc(C(=O)N2CCN(c3cnccn3)CC2)cc1C#Cc1cccc(C(F)(F)F)c1 result_value=6.96

Quick batch: pKi for everything below.
1. Cc1ccc(C(=O)N2CCN(c3ccccn3)CC2)cc1C#Cc1ccccn1
2. COc1ccc(C(=O)N2CCN(c3ccccn3)CC2)cc1C#Cc1cccc(C)c1
3. COc1ccc(C(=O)N2CCN(c3ccccn3)CC2)cc1C#Cc1cccc(N)c1
4. COc1ccc(C(=O)N2CCN(c3cnccn3)CC2)cc1C#Cc1cccc(F)c1
5. Cc1ccc(C(=O)N2CCN(c3cnccn3)CC2)cc1C#CCc1ccccc1

[8.23, 8.22, 6.52, 7.66, 6.44]

Requested read-out: pKi. Entry: COc1ccc(C(=O)N2CCN(c3ccccn3)CC2)cc1C#Cc1ccc(F)c(C)c1 7.26
